Ref: ChEMBL document CHEMBL5303300

Record form. Attribute: Population Pyknosed Nuclei (%). Fill in for each entry.
System: Fibroblast
Assay: Multiplex assay against human fibroblast
Type: toxicity, cell-based
Settings: 48 h, 10 µM, compound concentration 10 uM, number of replicates 2
Quick reminder: number only, in %, skip the unit.

Item: CS(=O)(=O)c1ccc(NC(=O)c2cccc(COc3ccc(Br)cc3CNCCO)c2)c(Cl)c1.O=CO Test system: Fibroblast Read-out: Population Pyknosed Nuclei (%) Value: ?
14

Item: CS(=O)(=O)c1ccc(C(=O)Nc2cccc(COc3ccc(Br)cc3CN3CC[C@H](O)C3)c2)cc1.O=CO Test system: Fibroblast Read-out: Population Pyknosed Nuclei (%) Value: ?
9

Item: CS(=O)(=O)c1ccc(C(=O)Nc2cccc(COc3ccc(Br)cc3CN[C@H]3CCC[C@@H]3O)c2)c(Cl)c1.O=CO Test system: Fibroblast Read-out: Population Pyknosed Nuclei (%) Value: ?
20

Item: CC(C)N(CCCCOCC(=O)NS(C)(=O)=O)c1cnc(-c2ccccc2)c(-c2ccccc2)n1 Test system: Fibroblast Read-out: Population Pyknosed Nuclei (%) Value: ?
19

Item: CCn1ccc(Nc2ncc3c(n2)-c2c(nn(C)c2-c2ccc(-c4cnn(C)c4)cc2Cl)CC3)n1 Test system: Fibroblast Read-out: Population Pyknosed Nuclei (%) Value: ?
16

Item: CS(=O)(=O)c1ccc(C(=O)Nc2cccc(COc3ccc(Br)cc3CN3CC[C@@H](O)C3)c2)c(Cl)c1.O=CO Test system: Fibroblast Read-out: Population Pyknosed Nuclei (%) Value: ?
10

Item: CS(=O)(=O)c1ccc(C(=O)Nc2cccc(COc3ccc(Br)cc3CN3CCC[C@H](O)C3)c2)c(Cl)c1.O=CO Test system: Fibroblast Read-out: Population Pyknosed Nuclei (%) Value: ?
7

----------
System: HEK-293T
Experiment: Multiplex assay against HEK293T
Format: toxicity, cell-based
Settings: human, 12 h, 10 µM, compound concentration 10 uM, number of replicates 2
READOUT KIND: Population Fragmented Nuclei (%)
Quick reminder: number only, in %, skip the unit.

// lookup Population Fragmented Nuclei (%) for CN1CCN(c2ccc(-n3cc(-c4ccncc4OCC4CCNCC4)cn3)cc2)CC1
1

// lookup Population Fragmented Nuclei (%) for CN(C)CC#Cc1ccc2[nH]c3c(c2c1)-c1nc(N)ncc1CCC3
3

// lookup Population Fragmented Nuclei (%) for COc1cc(OC)cc(C(=O)NNC(=O)Nc2cccc3ccccc23)c1
3

// lookup Population Fragmented Nuclei (%) for COCCN1CCN(CCn2ccc(Nc3ncc4c(n3)-c3c(nn(C)c3-c3ccccc3)C[C@H]4C)n2)CC1
5

// lookup Population Fragmented Nuclei (%) for C[C@@H](OC[C@@]1(c2ccccc2)CC[C@]2(CCC(=O)N2)CN1)c1cc(C(F)(F)F)cc(C(F)(F)F)c1 [ROLAPITANT]
4

// lookup Population Fragmented Nuclei (%) for CCc1cnn2c(NCc3ccc[n+]([O-])c3)cc(N3CCCCC3CCO)nc12 (stereo unspecified)
3

// lookup Population Fragmented Nuclei (%) for Cc1onc(-c2ccccc2Cl)c1C(=O)N(C)c1ccc(Cl)cc1
3

// lookup Population Fragmented Nuclei (%) for CC(C)S(=O)(=O)c1ccccc1Nc1nc(N[C@@H]2CCCN(CCCCCCCNC(=O)COc3cccc4c3C(=O)N(C3CCC(=O)N(C)C3=O)C4=O)C2)ncc1Cl (stereo partly specified)
3

// lookup Population Fragmented Nuclei (%) for O=C(NCc1ccc(F)cc1)N1CCN2C(=O)OC(c3ccccc3)(c3ccccc3)C2C1 (stereo unspecified)
2

// lookup Population Fragmented Nuclei (%) for COc1nc2ccc([C@@](O)(c3ccc(Cl)cc3)c3cncn3C)cc2c(Cl)c1Cc1ccc(-n2cccn2)cc1 [JNJ-53721590]
2

// lookup Population Fragmented Nuclei (%) for CCn1c(-c2nonc2N)nc2cncc(C(=O)N3CC[C@H](N)C3)c21.Cl
2

// lookup Population Fragmented Nuclei (%) for CNC(=O)c1c(F)cccc1Nc1nc(Nc2cc3c(cc2OC)CCN3C(=O)CN(C)C)nc2[nH]ccc12
7

// lookup Population Fragmented Nuclei (%) for COc1cc(Nc2cnc(C#N)c(O[C@H](C)CN(C)C)n2)ncc1-c1cnn(C)c1
2

// lookup Population Fragmented Nuclei (%) for CN1CCc2cc(Cl)c(O)cc2[C@@H](c2ccccc2)C1.Cl
4

// lookup Population Fragmented Nuclei (%) for CCCCOc1c(C(=O)c2c(F)cc(C)cc2F)c[nH]c2nncc1-2
3

// lookup Population Fragmented Nuclei (%) for CC1=C(C)C(=O)C(C(C)(C)CC(=O)N(CCCCSC[C@H]2O[C@@H](n3cnc4c(N)ncnc43)[C@H](O)[C@@H]2O)Cc2cccc(-c3ccc(Cl)cc3)c2)=C(C)C1=O
2

----------
System: HEK-293T
Assay: Multiplex assay against HEK293T
Assay type: toxicity, cell-based
Details: human, 48 h, 10 µM, compound concentration 10 uM, number of replicates 2
So basically: Population Mitochondria Different-Phenotype (%) at 1% or higher? That is fulfilled. Lower than 1%? That is not fulfilled.

Assess whether reported Population Mitochondria Different-Phenotype (%) for COc1cc(Br)c(S(=O)(=O)Nc2ccc(C(F)(F)F)c(O[C@@H]3CCN(C)C3)c2)cc1OC sits at 1% or higher.
not fulfilled

Assess whether reported Population Mitochondria Different-Phenotype (%) for Cn1ncc(NC(=O)c2nc(-c3c(F)cccc3F)sc2N)c1N1CC[C@@H](N)[C@H](F)CC1 sits at 1% or higher.
fulfilled

Assess whether reported Population Mitochondria Different-Phenotype (%) for C[C@@H]1CC[C@@]2(OC1)O[C@H]1[C@@H](O)[C@H]3[C@@H]4CC[C@H]5C[C@@H](O[C@@H]6O[C@H](CO)[C@H](O[C@@H]7O[C@H](CO)C(O)[C@H](O[C@@H]8OC[C@@H](O)[C@H](O)[C@H]8O)[C@H]7O[C@@H]7O[C@H](CO)[C@H](O)[C@H](O[C@@H]8O[C@H](CO)[C@@H](O)[C@H](O)[C@H]8O)[C@H]7O)[C@H](O)[C@H]6O)[C@H](O)C[C@]5(C)[C@H]4CC[C@]3(C)[C@H]1[C@@H]2C (stereo not given in full) [DIGITONIN] sits at 1% or higher.
not fulfilled

Assess whether reported Population Mitochondria Different-Phenotype (%) for CN(C)[C@H]1CC[C@H](Nc2ncc3ncnc(Nc4ccc(F)c(Cl)c4)c3n2)CC1 sits at 1% or higher.
not fulfilled

Assess whether reported Population Mitochondria Different-Phenotype (%) for CC1=C(C)C(=O)C(C(C)(C)CC(=O)N(CCCCSC[C@H]2O[C@@H](n3cnc4c(N)ncnc43)[C@H](O)[C@@H]2O)Cc2cccc(-c3ccc(Cl)cc3)c2)=C(C)C1=O sits at 1% or higher.
fulfilled

Assess whether reported Population Mitochondria Different-Phenotype (%) for Cc1c(C(=O)Nc2ccc(N3C[C@@H](C)O[C@@H](C)C3)nc2)cccc1-c1ccc(OC(F)(F)F)cc1 [SONIDEGIB] sits at 1% or higher.
not fulfilled

Assess whether reported Population Mitochondria Different-Phenotype (%) for Cc1cc(NC(=O)c2cccc(NC(=O)/C=C/CN(C)C)c2)ccc1Nc1nccc(-c2cccnc2)n1 sits at 1% or higher.
fulfilled

Assess whether reported Population Mitochondria Different-Phenotype (%) for CC(C)N(CCCCOCC(=O)NS(C)(=O)=O)c1cnc(-c2ccccc2)c(-c2ccccc2)n1 [SELEXIPAG] sits at 1% or higher.
not fulfilled

Assess whether reported Population Mitochondria Different-Phenotype (%) for CN1CCc2cc(Cl)c(O)cc2[C@@H](c2ccccc2)C1.Cl sits at 1% or higher.
not fulfilled

----------
Tested on: U2OS
Assay: Multiplex assay against U2OS
Format: toxicity, cell-based
Details: human, 12 h, 10 µM, compound concentration 10 uM, number of replicates 2
Record form. Attribute: Population Apoptotic (%). Fill in for each entry.
Quick reminder: number only, in %, skip the unit.

// lookup Population Apoptotic (%) for Cc1cccc(S(=O)(=O)N(C)[C@H](C)CCN2CCC(C)CC2)c1.Cl
50

// lookup Population Apoptotic (%) for CN1CCN(c2ccc(-n3cc(-c4ccncc4OCC4CCNCC4)cn3)cc2)CC1
80

// lookup Population Apoptotic (%) for Cc1cc(NC(=O)c2cccc(NC(=O)/C=C/CN(C)C)c2)ccc1Nc1nccc(-c2cccnc2)n1
75

// lookup Population Apoptotic (%) for C=CC(=O)Nc1ccc2[nH]c(=O)n(C3CCN(Cc4ccc(-c5ccc6c(c5)NC(=O)CO6)cc4)CC3)c2c1 [RL2578]
66

----------
Test system: HEK-293T
Assay: Multiplex assay against HEK293T
Assay type: toxicity, cell-based
Conditions: human, 48 h, 1 µM, compound concentration 1 uM, number of replicates 2
READOUT KIND: Population Hoechst High Intensity Objects (%)
Quick reminder: number only, in %, skip the unit.

// lookup Population Hoechst High Intensity Objects (%) for COc1cc(OC)cc(C(=O)NNC(=O)Nc2cccc3ccccc23)c1
9

// lookup Population Hoechst High Intensity Objects (%) for CCCCOc1c(C(=O)c2c(F)cc(C)cc2F)c[nH]c2nncc1-2
16

// lookup Population Hoechst High Intensity Objects (%) for COc1ncc(-c2cc(-c3ncc(CN4C[C@@H](C)O[C@@H](C)C4)o3)c3cn[nH]c3c2)cc1NS(C)(=O)=O
11

// lookup Population Hoechst High Intensity Objects (%) for COc1cc(Br)c(S(=O)(=O)Nc2ccc(C(F)(F)F)c(O[C@@H]3CCN(C)C3)c2)cc1OC
9

// lookup Population Hoechst High Intensity Objects (%) for O=C(NCc1ccc(F)cc1)N1CCN2C(=O)OC(c3ccccc3)(c3ccccc3)C2C1 (centres undefined)
9

// lookup Population Hoechst High Intensity Objects (%) for Cc1ccc(C(=O)Nc2cc(N3CCN(C)CC3)cc(C(F)(F)F)c2)cc1-n1cc(-c2cnn(C)c2C)nn1.Cl
10

// lookup Population Hoechst High Intensity Objects (%) for CC(C)N(CCCCOCC(=O)NS(C)(=O)=O)c1cnc(-c2ccccc2)c(-c2ccccc2)n1
8

// lookup Population Hoechst High Intensity Objects (%) for COc1cccc(Cn2cc(C(=O)Nc3ccc(C)c(S(=O)(=O)N4CCOCC4)c3)c(-c3ccc(C)cc3)n2)c1
9

// lookup Population Hoechst High Intensity Objects (%) for C[C@H](N)Cn1ccc2cc(F)c(Cl)cc21.O=C(O)/C=C/C(=O)O
9
